# ASSAY_METHOD_TEXT: pH solubility screen in Citric Acid / Dibasic Sodium Phosphate buffers
# Assay type: physicochemical
# CONDITION_SET: lower pH of range
VALUE_TYPE: pH Range where Protein is >80% detected as Soluble and A650 <1 OD: Low

MOLECULE	RESULT
SEQID-00269: nutritive polypeptide (protein) DLKKKLDDDLGTLENLEELKKKLLKDLELLSQRLEELALAYDKLEKTKTRLQQELDDLLLDLDHQ	7.2
SEQID-00510: nutritive polypeptide naturally produced in Turkey, recombinantly expressed in E. coli (protein, Meleagris gallopavo, nutritive polypeptide naturally produced in Turkey, recombinantly expressed in E. coli) MVPIAEKMAEKQEEPSNTQNGEPDNAEEGEGKKKKKVKREDLPPFEIVTGERLPAIFFKFQFRNVEYSSGRNKTFLCYVVETQGKESTTSRGYLEDEHAASHAEIAFFNTILPKCESSLRYNITWYVSSSPCVTCADRISETLRKNKNLRLTIMVGRLFMWEEPEMQAALKKMKSAGCKLRIMKPQDFEYVWQNFVEQEEGEEAKAFVPWEDIQENFQYYEEKLAEILQ	6.5
SEQID-00622: protein of the 168 nutritive polypeptide library (protein, listed as Oryza sativa, subsp. japonica, protein of the 168 nutritive polypeptide library) MASEGAVSPAFAYTVVYVKDVAKSAAFYSAAFGYTVRRLDQSHKWAELESGTTTIAFTPLHQRETDALTGAVQLPDSAGERGPVEICFDYADVDAAYRRAVDSGAVPVSPPEQKSWGQKVGYVRDIDGIIVRMGSHVRA	2.8
